Target: bovine thrombin (Bos taurus)
Assay: Antithrombin activity: inhibition of S-2238 decomposition
Format: biochemical
Conditions: Table 2; S-2238 substrate, pH 8.3, 37° C.; read-out: Thrombin S-2238 (I50)
pIC50: −log10 of the molar value. Structures can show the parent of a compound that is named as a salt.
Parameter: pIC50. Scope: all listed entries.

COMPOUND | MEASURED TARGET | RECORDED ENDPOINT | VALUE OBSERVED
NC[C@H]1CC[C@H](C(=O)N[C@@H](Cc2ccc(OCc3ccccc3)cc2)C(=O)Nc2ccnc(Cl)c2)CC1 [Compound No. 59, hydrochloride] | bovine thrombin (Bos taurus) | pIC50 | < 3.90
CC(=O)c1ccc(NC(=O)[C@H](Cc2ccc(OCc3ccccc3)cc2)NC(=O)[C@H]2CC[C@H](CN)CC2)cc1 | bovine thrombin (Bos taurus) | pIC50 | < 3.70
NC[C@H]1CC[C@H](C(=O)N[C@@H](Cc2ccc(OCc3ccccc3)cc2)C(=O)Nc2ccc(S(N)(=O)=O)cc2)CC1 [Compound No. 47, hydrochloride] | bovine thrombin (Bos taurus) | pIC50 | < 3.40
CC(=O)c1ccc(NC(=O)C(Cc2ccc(OCc3ccccc3)cc2)NC(=O)c2ccc(CN)cc2)cc1 (stereo not drawn) | bovine thrombin (Bos taurus) | pIC50 | < 4.30

Challenge: What value of pIC50 has been reported for the following compound? CCOC(=O)c1cccc(NC(=O)[C@H](Cc2ccc(OCc3ccccc3)cc2)NC(=O)[C@H]2CC[C@H](CN)CC2)c1
Response given: < 3.90

Challenge: // same read-out, input: NC[C@H]1CC[C@H](C(=O)N[C@@H](Cc2ccc(OCc3ccccc3)cc2)C(=O)Nc2cccnc2)CC1 [Compound No. 16, dihydrochloride]
Response given: < 3.40
